Task for the reader: assign each of the following compounds its reported IC50.
# ASSAYED_SYSTEM: recombinant human endothelial NO-synthases (ecNOS) (Homo sapiens)
# EXPERIMENT: Inhibition assay with recombinant human endothelial NO-synthases (ecNOS)
# SETTINGS: substrate [3H]-arginine; analogously to bcNOS

Worked examples follow.
* Cc1cccc2c1OC(C)C(N)=N2 (stereo not drawn) [2,8-Dimethyl-3-amino-1,4-benzoxazine] | > 100 µM
* Cc1cc2c(cc1C)OC(C)C(N)=N2 (stereo not drawn) [2,6,7-Trimethyl-3-amino-1,4-benzoxazine] | > 10 µM

Below: the item to evaluate.
Value of measured IC50 for the entry CCCC1Oc2ccccc2N=C1N (stereo not drawn) [2-n-Propyl-3-amino-1,4-benzoxazine] : > 10 µM
